target: human DPP-IV (Homo sapiens); test: DPP-IV activity assay (fluorometric/colorimetric), IC50 determination; conditions: natural human DPP-IV from human plasma pool or recombinant human DPP-IV; 37° C., pH 7.8; substrate 50 μM (fluorogenic) or 200 μM (colorimetric)
Sequence (P27487 31-766): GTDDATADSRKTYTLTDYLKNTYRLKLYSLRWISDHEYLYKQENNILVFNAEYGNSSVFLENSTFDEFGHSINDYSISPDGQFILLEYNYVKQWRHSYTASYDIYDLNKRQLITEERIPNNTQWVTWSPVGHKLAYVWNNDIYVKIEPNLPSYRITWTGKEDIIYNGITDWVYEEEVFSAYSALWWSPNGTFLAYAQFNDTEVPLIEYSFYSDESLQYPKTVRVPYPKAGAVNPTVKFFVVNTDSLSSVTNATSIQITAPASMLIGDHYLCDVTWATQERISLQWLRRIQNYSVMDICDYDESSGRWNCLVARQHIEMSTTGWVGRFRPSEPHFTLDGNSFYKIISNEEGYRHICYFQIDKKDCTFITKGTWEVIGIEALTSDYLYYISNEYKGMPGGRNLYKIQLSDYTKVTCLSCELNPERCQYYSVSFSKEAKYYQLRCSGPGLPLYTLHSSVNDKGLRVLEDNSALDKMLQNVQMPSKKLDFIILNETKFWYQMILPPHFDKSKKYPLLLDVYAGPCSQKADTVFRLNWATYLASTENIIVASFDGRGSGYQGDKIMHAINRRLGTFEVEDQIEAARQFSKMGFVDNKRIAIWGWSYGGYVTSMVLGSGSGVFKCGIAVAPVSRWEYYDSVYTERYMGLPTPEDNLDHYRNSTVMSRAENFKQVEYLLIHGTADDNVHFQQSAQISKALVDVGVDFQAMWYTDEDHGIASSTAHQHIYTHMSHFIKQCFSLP
pIC50: −log10 of the molar value.
Each entry below carries its reported pIC50.
PROPERTY LABEL: pIC50

[[record]]
compound = "NC1CCN(CCc2ccccc2)CC1c1cccc(Cl)c1 (stereo not drawn)"
observed_value = 6.80

[[record]]
compound = "COc1ccc(N2CC[C@@H](N)[C@@H](C(=O)N3CCSC3)C2)cc1OC (racemic)"
observed_value = 6.09

[[record]]
compound = "N[C@@H]1CCN(CCc2ccccn2)C[C@@H]1C(=O)N1CCSC1"
observed_value = 6.54


These measurements were taken from patent US7683079B2.
